Target: human capsaicin receptor (VR1) (Homo sapiens, UniProt Q8NER1)
Construct: transfected with the pBK-CMV expression construct encoding the full length human capsaicin receptor; expressed in transfected cells
Sequence (Q8NER1 whole entry): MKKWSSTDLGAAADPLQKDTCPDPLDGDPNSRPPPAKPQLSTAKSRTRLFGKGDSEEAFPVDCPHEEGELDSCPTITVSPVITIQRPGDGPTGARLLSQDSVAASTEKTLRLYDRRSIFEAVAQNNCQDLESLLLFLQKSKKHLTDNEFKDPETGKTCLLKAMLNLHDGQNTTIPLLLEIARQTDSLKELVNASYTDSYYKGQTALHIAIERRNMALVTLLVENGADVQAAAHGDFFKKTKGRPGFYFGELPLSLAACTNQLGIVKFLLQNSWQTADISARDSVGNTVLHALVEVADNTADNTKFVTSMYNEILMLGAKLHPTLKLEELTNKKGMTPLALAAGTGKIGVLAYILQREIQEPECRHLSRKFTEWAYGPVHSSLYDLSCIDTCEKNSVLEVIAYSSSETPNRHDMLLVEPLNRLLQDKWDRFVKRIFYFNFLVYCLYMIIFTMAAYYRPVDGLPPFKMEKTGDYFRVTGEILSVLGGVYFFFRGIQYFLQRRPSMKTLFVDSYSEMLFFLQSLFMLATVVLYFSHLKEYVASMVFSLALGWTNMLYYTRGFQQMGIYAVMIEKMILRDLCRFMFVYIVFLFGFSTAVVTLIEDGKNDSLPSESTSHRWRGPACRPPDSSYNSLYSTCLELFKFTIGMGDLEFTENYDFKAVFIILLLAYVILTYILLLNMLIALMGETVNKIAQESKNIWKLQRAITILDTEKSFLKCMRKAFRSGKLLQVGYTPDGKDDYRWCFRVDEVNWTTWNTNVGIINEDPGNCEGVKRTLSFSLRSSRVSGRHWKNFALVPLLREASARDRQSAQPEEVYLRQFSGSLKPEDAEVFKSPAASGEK
Assay: Capsaicin receptor binding assay ([3H]RTX competition)
Details: read-out: Ki
recorded_metric: Ki

CC(C)(C)[C@H]1CC[C@@H](NC(=O)c2ccc(-c3ncccc3Cl)cc2)CC1 ... < 1 µM
CC(C)(C)c1cccc(NC(=O)c2ccc(-c3cccc(F)c3)nc2)c1 ... < 1 µM
CC(C)(C)c1ccc(NC(=O)c2ccc(-c3ncccc3C(F)(F)F)cc2N)cc1 ... < 1 µM

Task: For human capsaicin receptor (VR1) (Homo sapiens, UniProt Q8NER1), provide Ki of `CC(C)(C)c1ccc(NC(=O)c2ccc(-c3ncccc3C#N)cc2)cc1` please.
Result: < 1 µM

Task: What about this molecule? `CC(C)(C)c1ccc(NC(=O)c2ccc(-c3ccccc3CO)nc2)cc1`
Result: < 1 µM

---

Biological target: human capsaicin receptor (VR1) (Homo sapiens, UniProt Q8NER1)
Construct: transfected with the pBK-CMV expression construct encoding the full length human capsaicin receptor; expressed in transfected cells
Experiment: Capsaicin receptor binding assay ([3H]RTX competition)
pKi: −log10 of the molar value.
recorded_metric: pKi

Task: I would be grateful if you could share the reported pKi for CCC1(c2ccc(NC(=O)c3ccc(-c4ncccc4F)cc3)cc2)CCC(=O)NC1=O (stereo not shown) .
Result: > 6.00

---

Biological target: human capsaicin receptor (VR1) (Homo sapiens)
Construct: transfected with the pBK-CMV expression construct encoding the full length human capsaicin receptor; expressed in transfected cells
Assay: Capsaicin receptor binding assay ([3H]RTX competition)
Settings: read-out: Ki
pKi: −log10 of the molar value.
recorded_metric: pKi

Cc1cc(NC(=O)c2ccc(-c3ncccc3Cl)cc2)ccc1C(C)C ... > 6.00
Cc1ccc(C)c(-c2ccc(C(=O)Nc3ccc(C(F)(F)F)cc3)cn2)c1 ... > 6.00
CC(C)(C)c1ccc(NC(=O)c2ccc(-c3ncccc3NO)cc2)cc1 ... > 6.00
Cc1ccccc1-c1ccc(C(=O)Nc2ccc(C(C)C)cc2)cn1 ... > 6.00
CCCNc1cccnc1-c1ccc(C(=O)Nc2ccc(C(C)(C)C)cc2)cc1 ... > 6.00

Task: I would be grateful if you could share the reported pKi for `COc1cccc(-c2ccc(C(=O)Nc3ccc4c(c3)CCC4)cn2)c1` .
Result: > 6.00

Task: What about this compound? `Cc1ccc(S(=O)(=O)Nc2cccnc2-c2ccc(C(=O)Nc3ccc(C(C)(C)C)cc3)cc2)cc1`
Result: > 6.00

Task: What about this compound? `O=C(Nc1ccc(C2CCCC2)cc1)c1ccc(-c2ncccc2F)cc1`
Result: > 6.00

Task: What about this compound? `CC(C)(C)c1ccc(NC(=O)c2ccc(-c3ccccc3Cl)nc2)cc1`
Result: > 6.00

Task: What about this compound? `O=C(Nc1ccc(C(F)(F)F)cc1)c1ccc(-c2ccccc2Cl)nc1`
Result: > 6.00

Task: What about this compound? `CC(C)(C)c1ccc(NC(=O)c2ccc(-c3ccccc3N(S(C)(=O)=O)S(C)(=O)=O)nc2)cc1`
Result: > 6.00

Task: What about this compound? CC(=O)N1CCCCC1c1ccc(C(=O)Nc2ccc(C(C)(C)C)cc2)cc1 (stereo not drawn)
Result: > 6.00

Task: What about this compound? `CC(C)(C)c1ccc(NC(=O)c2ccc(-c3cccc(F)c3)nc2)cc1`
Result: > 6.00

Task: What about this compound? `CCOc1cccc(-c2ccc(C(=O)Nc3ccc(C)c(C)c3)cn2)c1`
Result: > 6.00

Task: What about this compound? `CC(C)c1ccc(NC(=O)c2ccc(-c3cccc(F)c3)nc2)cc1`
Result: > 6.00

Task: What about this compound? `O=C(Nc1ccc2c(c1)OCCO2)c1ccc(-c2ccccc2F)nc1`
Result: > 6.00

Task: What about this compound? `Cc1cccc(-c2ccc(C(=O)Nc3ccc(C(C)(C)C)cc3)cn2)c1`
Result: > 6.00

Task: What about this compound? `O=C(Nc1ccccc1)c1ccc(-c2ccccc2Cl)nc1`
Result: > 6.00

Task: What about this compound? `CC(C)c1cccc(-c2ccc(C(=O)Nc3ccc4c(c3)OCCCO4)cn2)c1`
Result: > 6.00

Task: What about this compound? `Cc1ccccc1-c1ccc(C(=O)Nc2ccc(C(F)(F)F)cc2)cn1`
Result: > 6.00

Task: What about this compound? `CC(C)c1ccc(-c2ccc(C(=O)Nc3ccc(Br)c(Cl)c3)cn2)cc1`
Result: > 6.00

Task: What about this compound? `CC(C)(C#N)c1ccc(NC(=O)c2ccc(-c3ncccc3Cl)cc2)cc1`
Result: > 6.00

Hello, the source for this data is patent US20060100245A1, in case you need it.
